TARGET_SYSTEM: B.1.351 Spike (SARS-CoV2)
Would you mind telling me the reported Response of each entry?
Response field accepts a number only; no unit should be typed.

What value of measured Response is listed for Ab_13 scFv-Fc (scFv, V domains shown) VH: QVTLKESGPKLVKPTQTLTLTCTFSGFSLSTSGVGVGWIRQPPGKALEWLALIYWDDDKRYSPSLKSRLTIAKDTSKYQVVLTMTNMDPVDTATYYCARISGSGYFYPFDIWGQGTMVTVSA VL: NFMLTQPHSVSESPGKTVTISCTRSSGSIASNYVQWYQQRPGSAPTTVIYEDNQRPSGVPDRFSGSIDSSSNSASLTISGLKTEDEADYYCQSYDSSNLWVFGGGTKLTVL ?
0.103

Now give it for Ab_18 scFv-Fc (scFv, V domains shown) VH: EVQLVQSGGGVVQPGRSLRVSCAASGFSFSRYGMHWVRQAPGKGLEWVAFIRHDGSKKYYADSVEGRFTISRDNSRNTVSLEMNSLRGEDTAVYYCAKDGRLEAALDDWGQGTLVTVSS VL: NFMLTQPHSMSGSAGKTVTVSCIRSSGSIANNFVQWYQQRPGSAPTTVIYEDNQRPSGVPDRFSGSIDSSSNSASLTISGLKTEDEADYYCQSYDSSNLVFGGGTRLTVL too.
0.12

Now give it for Ab_25 scFv-Fc (scFv, V domains shown) VH: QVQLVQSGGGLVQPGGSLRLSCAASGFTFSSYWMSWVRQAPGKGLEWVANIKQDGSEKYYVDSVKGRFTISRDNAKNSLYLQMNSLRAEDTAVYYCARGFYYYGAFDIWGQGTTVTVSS VL: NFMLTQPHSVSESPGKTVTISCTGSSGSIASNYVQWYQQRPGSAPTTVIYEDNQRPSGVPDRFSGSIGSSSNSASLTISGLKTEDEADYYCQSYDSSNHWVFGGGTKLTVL too.
0.0577
